test: Evaluation of conversion rate to active form in buffer solution (Experimental Example 1); format: physicochemical; conditions: pH7.0, 0.5 hr, 37° C., 25 umol/L in buffer solution
Parameter: Residual rate. Scope: all listed entries.
API: value field is a number in %; no unit string.

# annotated cases, reported Residual rate shown
CC(C)N(CC1CCCCN1)C(=O)Oc1cc(O)c2c(=O)cc(-c3ccccc3Cl)oc2c1[C@H]1CCN(C)C[C@H]1O (stereo partly drawn) : 70.0
CN1CC[C@H](c2c(OC(=O)N(C)CC3CCCCN3)cc(O)c3c(=O)cc(-c4ccccc4Cl)oc23)[C@H](O)C1 (stereo partly drawn) : 69.3

Query :: I am curious: what Residual rate value has been reported for CN1CC[C@H](c2c(OC(=O)N(Cc3ccccc3)CC3CCCCN3)cc(O)c3c(=O)cc(-c4ccccc4Cl)oc23)[C@H](O)C1 (stereo partly drawn) ?
Result :: 38.5

Query :: I am curious: what Residual rate value has been reported for CN1CC[C@H](c2c(OC(=O)N(C)C[C@H]3CCCCN3)cc(O)c3c(=O)cc(-c4ccccc4Cl)oc23)[C@H](O)C1 ?
Result :: 51.3

Query :: I am curious: what Residual rate value has been reported for CCN(CCC1CCCCN1)C(=O)Oc1cc(O)c2c(=O)cc(-c3ccccc3Cl)oc2c1[C@H]1CCN(C)C[C@H]1O (stereo partly drawn) ?
Result :: 54.8

Query :: I am curious: what Residual rate value has been reported for CN1CC[C@H](c2c(OC(=O)N(CCCC(F)(F)F)CC3CCCCN3)cc(O)c3c(=O)cc(-c4ccccc4Cl)oc23)[C@H](O)C1 (stereo partly drawn) ?
Result :: 16.3

* * *

Test: Evaluation of conversion rate to active form in buffer solution (Experimental Example 1)
Format: physicochemical
Conditions: pH5.0, 0.5 hr
Method: For Examples 1 to 16 and Comparative Examples 1 to 14, the attrition rate of the test compound and the conversion rate of the test compound to Alvocidib in a buffer solution were calculated by the following method. Examples 1 to 16 and Comparative Examples 1 to 14 were each left in buffer solutions adjusted to pH 5.0, 5.5, 6.0, 6.5, 7.0 and 7.4, respectively, at a concentration of 25 umol/L at 37° C. […]
attribute.measured: Production rate of Alvocidib (%)
API: value field is a number in %; no unit string.

# annotated cases, reported Production rate of Alvocidib shown
CCNC(=O)O[C@@H]1CN(C)CC[C@@H]1c1c(O)cc(O)c2c(=O)cc(-c3ccccc3Cl)oc12 [Comparative Example 4, reference compound] : 1.8
CNC(=O)Oc1cc(O)c2c(=O)cc(-c3ccccc3Cl)oc2c1[C@H]1CCN(C)C[C@H]1O [Comparative Example 2, reference compound] : 31.8
CCOC(=O)O[C@@H]1CN(C)CC[C@@H]1c1c(O)cc(O)c2c(=O)cc(-c3ccccc3Cl)oc12 [Comparative Example 3, reference compound] : 1.2
CNCCN(C)C(=O)Oc1cc(O)c2c(=O)cc(-c3ccccc3Cl)oc2c1[C@H]1CCN(C)C[C@H]1O [Comparative Example 14, reference compound] : 17.9
CNC(=O)O[C@@H]1CN(C)CC[C@@H]1c1c(O)cc(O)c2c(=O)cc(-c3ccccc3Cl)oc12 [Comparative Example 5, reference compound] : 0.0
CN1CC[C@H](c2c(O)cc(O)c3c(=O)cc(-c4ccccc4Cl)oc23)[C@H](OC(=O)[C@@H](N)CO)C1 [Comparative Example 9, reference compound] : 7.1

Kindly consider the entry below.
Query :: I am curious: what Production rate of Alvocidib value has been reported for C[C@H](N)C(=O)O[C@@H]1CN(C)CC[C@@H]1c1c(O)cc(O)c2c(=O)cc(-c3ccccc3Cl)oc12 [Comparative Example 7, reference compound] ?
Result :: 5.7

* * *

test: Evaluation of conversion rate to active form in buffer solution (Experimental Example 1); type: physicochemical; conditions: pH6.0, 0 hr
attribute.measured: Residual rate (%)
API: value field is a number in %; no unit string.

CNC(=O)O[C@@H]1CN(C)CC[C@@H]1c1c(O)cc(O)c2c(=O)cc(-c3ccccc3Cl)oc12 [Comparative Example 5, reference compound] : 93.5
CCOC(=O)O[C@@H]1CN(C)CC[C@@H]1c1c(O)cc(O)c2c(=O)cc(-c3ccccc3Cl)oc12 [Comparative Example 3, reference compound] : 91.0

Query :: I am curious: what Residual rate value has been reported for CNC(=O)Oc1cc(O)c2c(=O)cc(-c3ccccc3Cl)oc2c1[C@H]1CCN(C)C[C@H]1O [Comparative Example 2, reference compound] ?
Result :: 95.1

* * *

Parameter: Residual rate. Scope: all listed entries.
assay: Stability evaluation of solution formulation (Experimental Example 2); format: physicochemical; settings: solution formulation, pH3.0, 0 week
API: value field is a number in %; no unit string.

# annotated cases, reported Residual rate shown
CN1CC[C@H](c2c(OC(=O)N(C)CCN)cc(O)c3c(=O)cc(-c4ccccc4Cl)oc23)[C@H](O)C1 [Comparative Example 13, reference compound] : 99.6
CNCCN(C)C(=O)Oc1cc(O)c2c(=O)cc(-c3ccccc3Cl)oc2c1[C@H]1CCN(C)C[C@H]1O [Comparative Example 14, reference compound] : 98.5
CCCN(C[C@@H]1CCCCN1)C(=O)Oc1cc(O)c2c(=O)cc(-c3ccccc3Cl)oc2c1[C@H]1CCN(C)C[C@H]1O : 98.2
CCN(C[C@H]1CCCCN1)C(=O)Oc1cc(O)c2c(=O)cc(-c3ccccc3Cl)oc2c1[C@H]1CCN(C)C[C@H]1O : 96.5

Kindly consider the entry below.
Query :: I am curious: what Residual rate value has been reported for CCCN(C[C@H]1CCCCN1)C(=O)Oc1cc(O)c2c(=O)cc(-c3ccccc3Cl)oc2c1[C@H]1CCN(C)C[C@H]1O ?
Result :: 98.8

* * *

Assay: Evaluation of conversion rate to active form in buffer solution (Experimental Example 1)
Format: physicochemical
Conditions: pH5.5, 0.5 hr
Description: For Examples 1 to 16 and Comparative Examples 1 to 14, the attrition rate of the test compound and the conversion rate of the test compound to Alvocidib in a buffer solution were calculated by the following method. Examples 1 to 16 and Comparative Examples 1 to 14 were each left in buffer solutions adjusted to pH 5.0, 5.5, 6.0, 6.5, 7.0 and 7.4, respectively, at a concentration of 25 umol/L at 37° C. […]
attribute.measured: Production rate of Alvocidib (%)
API: value field is a number in %; no unit string.

# annotated cases, reported Production rate of Alvocidib shown
C[C@H](N)C(=O)O[C@@H]1CN(C)CC[C@@H]1c1c(O)cc(O)c2c(=O)cc(-c3ccccc3Cl)oc12 [Comparative Example 7, reference compound] : 7.9
CNCCN(C)C(=O)Oc1cc(O)c2c(=O)cc(-c3ccccc3Cl)oc2c1[C@H]1CCN(C)C[C@H]1O [Comparative Example 14, reference compound] : 44.2

Query :: I am curious: what Production rate of Alvocidib value has been reported for CNC(=O)O[C@@H]1CN(C)CC[C@@H]1c1c(O)cc(O)c2c(=O)cc(-c3ccccc3Cl)oc12 [Comparative Example 5, reference compound] ?
Result :: 0.0

* * *

assay: Evaluation of conversion rate to active form in buffer solution (Experimental Example 1); format: physicochemical; conditions: pH7.4, 3 hr, 37° C., 25 umol/L in buffer solution
Counter-ions that a name gives are not always drawn.
attribute.measured: Production rate of Alvocidib (%)
API: value field is a number in %; no unit string.

CCN(CC1CCCCN1)C(=O)Oc1cc(O)c2c(=O)cc(-c3ccccc3Cl)oc2c1[C@H]1CCN(C)C[C@H]1O (stereo partly shown) [Example 7, dihydrochloride] : 81.0

Query :: I am curious: what Production rate of Alvocidib value has been reported for CC(C)N(CC1CCCCN1)C(=O)Oc1cc(O)c2c(=O)cc(-c3ccccc3Cl)oc2c1[C@H]1CCN(C)C[C@H]1O (stereo partly shown) ?
Result :: 91.6

Query :: I am curious: what Production rate of Alvocidib value has been reported for CN1CC[C@H](c2c(OC(=O)N(C)C[C@@H]3CCCCN3)cc(O)c3c(=O)cc(-c4ccccc4Cl)oc23)[C@H](O)C1 ?
Result :: 82.5

Query :: I am curious: what Production rate of Alvocidib value has been reported for COCCN(CC1CCCCN1)C(=O)Oc1cc(O)c2c(=O)cc(-c3ccccc3Cl)oc2c1[C@H]1CCN(C)C[C@H]1O (stereo partly shown) ?
Result :: 63.6

* * *

assay: Evaluation of conversion rate to active form in buffer solution (Experimental Example 1); assay type: physicochemical; conditions: pH5.5, 3 hr
attribute.measured: Residual rate (%)
API: value field is a number in %; no unit string.

Query :: I am curious: what Residual rate value has been reported for C[C@H](N)C(=O)O[C@@H]1CN(C)CC[C@@H]1c1c(O)cc(O)c2c(=O)cc(-c3ccccc3Cl)oc12 [Comparative Example 7, reference compound] ?
Result :: 66.6
